- test-target: Enoyl-[acyl-carrier-protein] reductase [NADH] (Mycobacterium tuberculosis)
- Sequence (whole entry): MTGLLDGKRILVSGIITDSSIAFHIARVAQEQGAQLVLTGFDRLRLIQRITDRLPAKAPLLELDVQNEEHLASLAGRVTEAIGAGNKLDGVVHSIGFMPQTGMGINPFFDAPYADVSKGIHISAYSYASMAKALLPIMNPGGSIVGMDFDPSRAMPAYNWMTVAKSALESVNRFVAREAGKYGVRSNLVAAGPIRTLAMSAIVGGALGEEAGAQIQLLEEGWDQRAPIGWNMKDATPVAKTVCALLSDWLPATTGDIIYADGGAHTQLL
- method-summary: Inhibition of Mycobacterium tuberculosis InhA using octenoyl-CoA as substrate assessed as decrease in NADH consumption at 40 uM measured for 10 mins relative to control
Each item that follows carries a reported inhibition.
# number only, unit % dropped from output

Return reported inhibition; argument: `O=C(CCCc1c[nH]c2ccccc12)NCc1ccc2c(c1)OCO2`
37

Cool, now `O=C(c1ccc2[nH]ccc2c1)N1CCN(Cc2ccccc2)CC1`
62

Cool, now `O=C(Cc1ccccc1F)NCCO`
34

Cool, now `COc1cc(CCNC(=O)CCCc2c[nH]c3ccccc23)cc(OC)c1`
21

More entries:
Return reported inhibition; argument: `COc1ccc(CCNC(=O)Cc2ccccc2F)cc1`
63

Cool, now `COc1ccccc1N1CCN(C(=O)c2ccc3[nH]ccc3c2)CC1`
78

Cool, now `FC(F)(F)c1ccnc(-n2cc(-c3ccnc4ccccc34)cn2)n1`
9

Cool, now `O=[N+]([O-])c1ccccc1-c1cnn(-c2nccc(C(F)(F)F)n2)c1`
14

Cool, now `COc1ccc(-c2cnn(-c3nccc(C(F)(F)F)n3)c2)cc1`
4

Cool, now `FC(F)(F)c1ccnc(-n2cc(-c3ccncn3)cn2)n1`
36

Cool, now `O=C(c1ccc2[nH]ccc2c1)N1CCN(c2ccccn2)CC1`
36

Cool, now `O=C(c1ccc2[nH]ccc2c1)N1CCN(c2ccc(F)cc2)CC1`
53

Cool, now `O=C(c1cccnc1)c1ccc2[nH]ccc2c1`
36

----------
- test-target: Enoyl-[acyl-carrier-protein] reductase [NADH] (Mycobacterium tuberculosis)
- method-summary: Inhibition of Mycobacterium tuberculosis InhA using octenoyl-CoA as substrate assessed as decrease in NADH consumption at 40 uM measured for 10 mins relative to control
1.0 means recorded inhibition is 50% or above; 0.0 means it is below 50%.

Has `FC(F)(F)c1ccnc(-n2cc(-c3nc4ccccc4[nH]3)cn2)n1` a recorded inhibition greater than or equal to 50%?
0.0

Cool, now `O=[N+]([O-])c1cc(Cl)ccc1-c1cnn(-c2nccc(C(F)(F)F)n2)c1`
1.0

Cool, now `O=C(Cc1ccccc1F)NCCC1=CCCCC1`
1.0

Cool, now `Cc1c(C)c(C)c(C(=O)C2CCN(C(=O)c3ccc4[nH]ccc4c3)CC2)c(C)c1C`
1.0

More entries:
Has CC1CN(C(=O)c2ccc3[nH]ccc3c2)CC(C)O1 (stereo unspecified) a recorded inhibition greater than or equal to 50%?
0.0

Cool, now `CN(CCc1ccccc1)C(=O)c1ccc(-c2ccccc2)cc1`
0.0

Cool, now `O=C(c1ccc2[nH]ccc2c1)N1CCc2ccccc2C1`
1.0

Cool, now `O=C(CCCc1c[nH]c2ccccc12)Nc1ccc(N2CCCC2)cc1`
0.0

Cool, now `O=C(c1ccc(F)cc1)C1CCN(C(=O)c2ccc3[nH]ccc3c2)CC1`
1.0

Cool, now `O=C(c1ccc2[nH]ccc2c1)N1CCN(c2ccccc2)CC1`
1.0

----------
- method-summary: Cytotoxicity against mouse embryonic stem cells
- Type: cell-based
- condition: embryonic stem cell
property-name: Activity

A selection of reference data follows.
Return reported Activity; argument: `O=C(c1ccc2[nH]ccc2c1)N1CCN(C2c3ccccc3-c3ccccc32)CC1`
46 to 52 µM

Cool, now `CCCC(=O)C1(c2ccccc2)CCN(C(=O)c2ccc3[nH]ccc3c2)CC1`
46 to 50 µM

More entries:
Return reported Activity; argument: `CC(C)=CCC/C(C)=C/CNC(=O)CCc1c[nH]c2ccccc12`
11 to 90 µM

----------
- test-target: UniProtKB P9WGR1
- method-summary: Inhibition of Mycobacterium tuberculosis InhA using octenoyl-CoA as substrate assessed as decrease in NADH consumption at 40 uM measured for 10 mins relative to control
property-name: inhibition (%)
# number only, unit % dropped from output

Return reported inhibition; argument: `COc1ccc([N+](=O)[O-])c(-c2cnn(-c3nccc(C(F)(F)F)n3)c2)c1`
17

Cool, now `O=C(c1ccc2[nH]ccc2c1)N1CCN(Cc2ccc3c(c2)OCO3)CC1`
51

Cool, now `O=C(Cc1ccccc1F)NCCC(c1ccccc1)c1ccccc1`
63

Cool, now `CS(=O)(=O)c1ccc(-c2cnn(-c3nccc(C(F)(F)F)n3)c2)c([N+](=O)[O-])c1`
10

Cool, now `CN(Cc1ccccc1)C(=O)c1ccc(-c2ccccc2)cc1`
44

More entries:
Return reported inhibition; argument: `O=C(Nc1ccc2ccccc2n1)c1ccc2[nH]ccc2c1`
16

Cool, now `COc1cc2c(cc1OC)CN(C(=O)c1ccc3[nH]ccc3c1)CC2`
86

Cool, now `CN(Cc1ccco1)C(=O)c1ccc(-c2ccccc2)cc1`
29

Cool, now `O=C(Cc1ccccc1F)NCCc1c[nH]c2ccccc12`
47

Cool, now `FC(F)(F)c1ccnc(-n2cc(-c3ccc(Cl)cc3)cn2)n1`
8

Cool, now `CC(C)=CCC/C(C)=C/CNC(=O)CCc1c[nH]c2ccccc12`
73

Cool, now `O=C(c1ccc(-c2ccccc2)cc1)N1CCc2ccccc2C1`
27

Cool, now `O=C(c1ccc2[nH]ccc2c1)N1CCN(C(c2ccccc2)c2ccccc2)CC1`
106

Cool, now `O=C(Cc1ccccc1F)NCCc1cccc(Cl)c1`
84

Cool, now `FC(F)(F)c1ccnc(-n2cc(-c3cccnc3)cn2)n1`
36

Cool, now CC(C)C1C2CCC(NC(=O)CCCc3c[nH]c4ccccc34)C1C2 (stereo not drawn)
34

----------
- test-target: Enoyl-[acyl-carrier-protein] reductase [NADH] (Mycobacterium tuberculosis) (UniProt P9WGR1)
- method-summary: Inhibition of Mycobacterium tuberculosis InhA using octenoyl-CoA as substrate assessed as decrease in NADH consumption at 40 uM measured for 10 mins relative to control
Each item that follows carries a reported inhibition.
# number only, unit % dropped from output

A selection of reference data follows.
Return reported inhibition; argument: `O=C(Cc1ccccc1F)NCc1cccc(Cl)c1`
75

Cool, now `O=C(Cc1ccccc1F)NCCc1ccccc1`
45

Cool, now `O=C(c1ccc(-c2ccccc2)cc1)N1CCN(Cc2ccccc2)CC1`
27

Cool, now `FC(F)(F)c1ccnc(-n2cc(-c3cnc4ccccc4n3)cn2)n1`
36

Cool, now CC(C)C1C2CCC(NC(=O)CCc3c[nH]c4ccccc34)C1C2 (configuration not stated)
28

More entries:
Return reported inhibition; argument: `FC(F)(F)c1ccnc(-n2cc(-c3cnccn3)cn2)n1`
9

Cool, now `FC(F)(F)c1ccnc(-n2cc(-c3ccc4ccccc4n3)cn2)n1`
16
